- studySystem: MAPKAPK3 (human) (UniProt Q16644)
- Sequence (Q16644 whole entry, looked up): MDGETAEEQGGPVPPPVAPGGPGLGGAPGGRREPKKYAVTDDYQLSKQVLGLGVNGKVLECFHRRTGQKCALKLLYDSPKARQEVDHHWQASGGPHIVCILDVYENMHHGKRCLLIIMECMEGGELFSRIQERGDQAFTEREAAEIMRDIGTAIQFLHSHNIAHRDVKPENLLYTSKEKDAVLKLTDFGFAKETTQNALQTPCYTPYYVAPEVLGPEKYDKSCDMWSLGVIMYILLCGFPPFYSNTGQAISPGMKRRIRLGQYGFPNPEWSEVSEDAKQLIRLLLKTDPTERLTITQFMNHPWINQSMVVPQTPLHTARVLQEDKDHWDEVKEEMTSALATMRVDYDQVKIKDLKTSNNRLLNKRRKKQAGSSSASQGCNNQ
- assayDetails: radiometric filter-binding kinase assay, Kinase HotSpot
- experimentalContext: compound 0.5 µM; ATP 10 µM
Record form. Attribute: residual activity. Fill in for each entry.
Answers are plain numbers, in %.

// worked examples, residual activity included
[[record]]
smilesstr = "O=C1NC(=O)c2cc(Nc3ccc(F)cc3)c(Nc3ccc(F)cc3)cc21"
quantitativeresult = 95.9

[[record]]
smilesstr = "N#Cc1c(NC(=O)c2cccc3ccccc23)sc2c1CCCC2"
quantitativeresult = 102

[[record]]
smilesstr = "COc1cc2c(N3CCN(C(=O)Nc4ccc(OC(C)C)cc4)CC3)ncnc2cc1OCCCN1CCCCC1"
quantitativeresult = 103

[[record]]
smilesstr = "COc1cc2c(cc1OC)-c1[nH]nc(Nc3cccc(F)c3)c1C2"
quantitativeresult = 90.8

[[record]]
smilesstr = "O=C1NC(=O)c2c1c1c3ccccc3[nH]c1c1[nH]c3cc(Br)ccc3c21"
quantitativeresult = 118


Report residual activity for every entry below.
1. O=C(c1ccccc1)c1ccc(N2CCOCC2)cc1O
2. O=C(O)c1ccc2c3c1cccc3c(=O)n1c3ccccc3nc21
3. CCCCc1c(-c2ccc(O)cc2)[nH]c2nccnc12
4. FC(F)(F)c1ccc(/C=C/c2nc(COc3ccc(CCCCn4ccnn4)cc3)co2)cc1
5. O=c1c(-c2ccc(F)cc2)c(-c2ccncc2)[nH]n1-c1ccc(Cl)cc1
6. c1ccc(-c2cnc(Nc3ccc(OCCN4CCCC4)cc3)s2)cc1

Result block:
[106, 103, 92.8, 98.9, 101, 97.6]

Query block: Given the entry `Cn1cc(/C=C2\C(=O)Nc3ccc(S(N)(=O)=O)cc32)c2ccccc21` , what residual activity was observed with MAPKAPK3 (human) (UniProt Q16644)?
Result block: 91.5

The values you see were collected from the kinase profiling compilation of Christmann-Franck et al. (2016).
